- tgt: T1, huNav1.7α + β1-β2-β3 (human, UniProt Q15858 1-1988; A5A6L6 19-218; O60939 30-215; Q2KI11 23-215)
- T1 construct: Cell line (CHO FlpIn, HEK FlpIn, transient HEK293T) is named under assay; also called huNav1.7-beta1-beta2-beta3; human Nav1.7α with Navβ1, Navβ2 and Navβ3
- experiment.description: binding FACS, CHO FlpIn cells
pEC50: −log10 of the molar value.
Recorded pEC50, one value per entry.
measured.endpoint: pEC50

{"binder": "F0103387G05 (VHH, entry includes the FLAG-HIS6 tag; also called F0103387G05 (parental)-FLAG-HIS6) VHH: EVQLVESGGGLVQAGGSLRLSCDASGRILRIGYMRWHRQGAGKQREFVARITDDSATDYADSVKGRFTISRDNAKNTVYLQMNNLNPEDTAVYYCEALVTASVRGGSIHSGTYWGRGTLVTVSS", "observed.result": 8.59}
{"binder": "F0103262B06 (VHH, entry includes the FLAG-HIS6 tag; also called F0103262B06 (parental)-FLAG-HIS6) VHH: EVQLVESGGGLVQPGGSLRLSCAGSTRTFSTYAMGWFRQAPGREREFVAHINFSGSSTRYADSVKGRFTISRDNAKNMGYLQMNSLKPEDTAVYYCAARWVAGPPRYDYEYWGQGTLVTVSS", "observed.result": 7.33}
{"binder": "F0103464B09 (VHH, entry includes the FLAG-HIS6 tag; also called F0103464B09 (parental)-FLAG-HIS6; F103464B09) VHH: EVQLVESGGGLVQPGGSLRLSCATTSRAFIRDVFTGWYRRVPGKERELVARIYNGGNTNYADFAKGRFSISRDNAKKMVTLRMSNLKPEDTGVYYCLFSGTINTGREYRSGDYWGQGTLVTVSS", "observed.result": 8.47}
{"binder": "F0103262C02 (VHH, entry includes the FLAG-HIS6 tag; also called F0103262C02 (parental)-FLAG-HIS6; F103262CO2) VHH: EVQLVESGGGLVQAGGSLTLSCAASGLPFGLYILGWIRRAPGKERDFVAAISRSGRDTVYANSVKGRFTISRDNAKNMVYLRMDNLRPEDTAAYYCAVDSVPRGTPTITESEYAIWGQGTLVTVSS", "observed.result": 6.54}
{"binder": "F0103275B05 (VHH, entry includes the FLAG-HIS6 tag; also called F0103275B05 (parental)-FLAG-HIS6) VHH: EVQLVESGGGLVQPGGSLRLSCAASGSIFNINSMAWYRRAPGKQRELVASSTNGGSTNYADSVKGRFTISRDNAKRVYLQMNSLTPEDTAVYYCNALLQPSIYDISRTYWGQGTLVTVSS", "observed.result": 7.52}
{"binder": "F0103265B04 (VHH, entry includes the FLAG-HIS6 tag; also called F0103265B04 (parental)-FLAG-HIS6) VHH: EVQLVESGGGLVQPGGSLRLSCAAPSFIFSNNYMEWYRQAPGKQRDWVARITGRGNTNYLDSVKGRFTISRDDAKNTVYLEIDSLKPEDTAVYYCSALWYGGRAWGKGTLVTVSS", "observed.result": 8.04}
{"binder": "F010301080 (VHH) VHH: EVQLVESGGGLVQPGGSLRLSCAASGMLFNANTQGWYRQAPGKQRELVAFIFWGGYVTYNDSVKGRFTISRDNAKRTMYLQMNSLKPEDSAIYYCSLSRYLGQGTLVTVSS", "observed.result": 8.47}
{"binder": "F0103362B08 (VHH, entry includes the FLAG-HIS6 tag; also called F0103362B08 (parental)-FLAG-HIS6) VHH: EVQLVESGGGLVQAGGSLRLSCAASVRPFSTSAMGWFRQAPEKEREAVAGILWNGIVTYYADSVKGRFTISRDNAKNEVYLQMNKLKPEDTAVYYCALDRDYGGRSFSAYEYEYWGQGTLVTVSS", "observed.result": 7.37}

// data source = patent US20240002497A1
